# System: Ramos cells
# Assay Name: Cytotoxicity in Ramos cells
# Assay type: cell-based
# Experimental Setup: Homo sapiens; cytotoxicity in Ramos cells; read-out: Ramos Cell EC50
pEC50: −log10 of the molar value.
Result Type: pEC50

# annotated cases, reported pEC50 shown
- Compound: "O=C(N=C(Nc1cc(F)cc(Cl)c1)Nc1cc(-c2ccc(F)cc2)n[nH]1)c1ccc(F)cc1 [Compound A-461]"
  pEC50: "> 5.00"
- Compound: "Cc1ccc(-c2cc(NC(=NC(=O)c3ccc(C(F)(F)F)cc3)NC(C)(C)C)[nH]n2)cc1 [Compound A-426]"
  pEC50: "< 5.00"
- Compound: "CC(C)N/C(=N/C(=O)c1ccc(Cl)cc1)Nc1cc(C(F)(F)F)n[nH]1 [Compound A-107]"
  pEC50: "> 5.00"

I am curious: what pEC50 value has been reported for O=C(/N=C(\Nc1cc(C(F)(F)F)n[nH]1)NC1CCCOC1)c1ccc(Cl)cc1 (stereo not shown) [Compound A-110] ?
> 5.00

* * *

Each record here notes measured EC50.
# Test system: Ramos cells
# Assay Name: Cytotoxicity in Ramos cells
# Format: cell-based
# Experimental Setup: Homo sapiens; cytotoxicity in Ramos cells; read-out: Ramos Cell EC50

Look over these answered cases.
- Molecule: "CCC(C)N/C(=N/C(=O)c1ccc(F)cc1)Nc1cc(-c2ccc(F)cc2)n[nH]1 (centres unmarked)"
  Val: "< 10 µM"
- Molecule: "Cc1cc(C(=O)/N=C(/NCc2ccc(F)cc2Cl)Nc2cc(C(F)(F)F)[nH]n2)ccn1"
  Val: "> 10 µM"
- Molecule: "O=C(N=C(NCC1CCO1)Nc1cc(-c2ccc(Cl)cc2)n[nH]1)c1ccc(F)c(F)c1 (centres unmarked)"
  Val: "< 10 µM"
- Molecule: "CC(C)(C)NC(=NC(=O)c1cccc(C(F)(F)F)c1)Nc1cc(-c2ccc(F)cc2)n[nH]1"
  Val: "< 10 µM"
- Molecule: "O=C(/N=C(\\Nc1cc(C(F)(F)F)n[nH]1)NC1CCCOC1)c1ccc(F)c(F)c1 (centres unmarked)"
  Val: "< 10 µM"

I am curious: what EC50 value has been reported for "O=C(N=C(Nc1cc(F)cc(Cl)c1)Nc1cc(-c2cccc(Cl)c2)[nH]n1)c1ccc(F)c(F)c1" ?
< 10 µM

Same again, this time with "COC[C@H](C)N/C(=N/C(=O)c1ccc(F)cc1)Nc1cc(-c2ccc(C)c(F)c2)n[nH]1"
< 10 µM

Try "CC(=O)Nc1cc(C(=O)N=C(Nc2cc(-c3ccc(F)cc3)[nH]n2)NC(C)(C)C)ccn1" next.
> 10 µM

Would you kindly repeat that for CC(N/C(=N/C(=O)c1ccc(F)c(F)c1)Nc1cc(C(F)(F)F)[nH]n1)c1ccc(Cl)cc1 (centres unmarked) ?
< 10 µM

// next record "O=C(/N=C(/NCc1ccc(F)cc1Cl)Nc1cc(C(F)(F)F)[nH]n1)c1ccc(C(F)F)cc1"
< 10 µM

Input "O=C(N=C(Nc1cc(-c2ccc(Cl)cc2)n[nH]1)NC1CCCC1)c1ccc(F)c(F)c1"
< 10 µM

* * *

Recorded pEC50, one value per entry.
# Test system: Ramos cells
# Assay Name: Cytotoxicity in Ramos cells
# Type: cell-based
# Experimental Setup: Homo sapiens; cytotoxicity in Ramos cells; read-out: Ramos Cell EC50
pEC50: −log10 of the molar value.

- Smiles String: "O=C(/N=C(/NCc1ccc(F)c(Cl)c1)Nc1cc(C(F)(F)F)[nH]n1)c1ccc(Cl)cc1"
  System Name: "Ramos cells"
  pEC50: "> 5.00"
- Smiles String: "CC(C)(C)NC(=NC(=O)c1ccnc(N)c1)Nc1cc(-c2ccc(F)cc2)[nH]n1"
  System Name: "Ramos cells"
  pEC50: "> 5.00"

Name the recorded pEC50 for "CC(C)N/C(=N/C(=O)c1ccc(Cl)cc1)Nc1cc(C(F)F)[nH]n1" .
< 5.00

Repeat for the following compound: "O=C(/N=C(/Nc1cc(F)cc(Cl)c1)Nc1cc(C(F)F)[nH]n1)c1ccc(C(F)(F)F)cc1"
> 5.00

* * *

# Tested on: Ramos cells
# Assay Name: Cytotoxicity in Ramos cells
# Assay type: cell-based
# Experimental Setup: Homo sapiens; cytotoxicity in Ramos cells; read-out: Ramos Cell EC50
pEC50: −log10 of the molar value.
Result Type: pEC50

Answered examples (8):
- Compound: "COCC(C)NC(=NC(=O)c1cccc(OC)c1)Nc1cc(C(F)(F)F)n[nH]1 (stereo not drawn)"
  System Name: "Ramos cells"
  Result Type: "pEC50"
  Val: "> 5.00"
- Compound: "O=C(/N=C1\\Nc2cc(-c3ccc(F)cc3)nn2C[C@@H]2CCCN12)c1ccc(F)cc1"
  System Name: "Ramos cells"
  Result Type: "pEC50"
  Val: "< 5.00"
- Compound: "CCC(C)N/C(=N/C(=O)c1cccc(OC)c1)Nc1cc(-c2ccc(Cl)cc2)n[nH]1 (stereo not drawn)"
  System Name: "Ramos cells"
  Result Type: "pEC50"
  Val: "> 5.00"
- Compound: "O=C(/N=C(\\Nc1cc(C(F)(F)F)n[nH]1)NC1CCCOC1)c1ccc(C(F)(F)F)cc1 (stereo not drawn)"
  System Name: "Ramos cells"
  Result Type: "pEC50"
  Val: "> 5.00"
- Compound: "CC(C)OCCCNC(=NC(=O)c1ccc(Cl)c(F)c1)Nc1cc(-c2cc(F)cc(F)c2)n[nH]1"
  System Name: "Ramos cells"
  Result Type: "pEC50"
  Val: "> 5.00"
- Compound: "CC1(NC(=NC(=O)c2ccc(F)c(F)c2)Nc2cc(-c3cc(F)cc(Cl)c3)n[nH]2)CCCC1"
  System Name: "Ramos cells"
  Result Type: "pEC50"
  Val: "> 5.00"
- Compound: "COc1cccc(C(=O)N=C(Nc2cc(-c3ccc(F)cc3)n[nH]2)NC(C)(C)C)c1"
  System Name: "Ramos cells"
  Result Type: "pEC50"
  Val: "> 5.00"
- Compound: "O=C(N=C(Nc1cc(F)cc(Cl)c1)Nc1cc(-c2cccc(Cl)c2)[nH]n1)c1ccc(C(F)(F)F)cc1"
  System Name: "Ramos cells"
  Result Type: "pEC50"
  Val: "< 5.00"

Need pEC50 of CCC(C)N/C(=N/C(=O)c1cccc(OC)c1)Nc1cc(-c2ccc(F)cc2)n[nH]1 (stereo not drawn) , thanks.
> 5.00

Lookup "CC(C)NC(=NC(=O)c1cccc(C#N)c1)Nc1cc(-c2ccc(F)cc2)n[nH]1"
< 5.00

And what about the compound O=C(N=C(Nc1cc(C(F)(F)F)n[nH]1)NC1CCC(O)CC1)c1ccc(F)c(F)c1 (stereo not drawn) ?
< 5.00

* * *

The following compounds are shown together with reported EC50 values.
# Test system: Ramos cells
# Assay Name: Cytotoxicity in Ramos cells
# Format: cell-based
# Experimental Setup: Homo sapiens; cytotoxicity in Ramos cells; read-out: Ramos Cell EC50

- Compound: "O=C(N=C(Nc1cc(C(F)(F)F)n[nH]1)N1CCCC1)c1ccc(C(F)(F)F)cc1"
  Val: "> 10 µM"

Any idea what its EC50 is? The compound is "CC(C)(C)NC(=NC(=O)c1ccc(Cl)c(F)c1)Nc1cc(-c2cccc(Cl)c2)[nH]n1"
< 10 µM

Quick one: "CC(C)CNC(=NC(=O)c1ccc(F)c(F)c1)Nc1cc(-c2cc(F)cc(F)c2)n[nH]1"
< 10 µM

What do you have for "CC(C)(C)CN/C(=N/C(=O)c1ccc(Cl)cc1)Nc1cc(C(F)F)[nH]n1" ?
< 10 µM

Quick one: "C[C@@H](N/C(=N\C(=O)c1ccc(F)c(F)c1)Nc1cc(C(F)(F)F)n[nH]1)C1CCCCC1"
< 10 µM

Now consider "CC(C)(C)NC(=NC(=O)c1ccc(Cl)c(F)c1)Nc1cc(-c2ccc(F)cc2)n[nH]1" and answer again.
< 10 µM

Note, next up: "CC(C)(C)N/C(=N/C(=O)c1ccc(C(F)(F)F)cc1)Nc1cc(C(=O)O)n[nH]1"
> 10 µM

Then this compound: "O=C(/N=C(\Nc1cc(C(F)(F)F)[nH]n1)NC1CCCCCC1)c1ccc(C(F)(F)F)cc1"
< 10 µM

Try this compound next: "O=C(N=C(Nc1cc(F)cc(Cl)c1)Nc1cc(-c2cc(F)cc(F)c2)[nH]n1)c1ccc(F)c(F)c1"
< 10 µM

Moving on to the next compound: "CC(C)(C)c1cc(NC(=NC(=O)c2ccc(Cl)c(F)c2)Nc2cc(-c3cc(F)cc(F)c3)n[nH]2)no1"
> 10 µM

Would you mind doing "CCC(C)(C)N/C(=N/C(=O)c1ccc(C(F)(F)F)cc1)Nc1cc(C(F)(F)F)n[nH]1" as well?
< 10 µM

Next compound up: "CC(C)N/C(=N/C(=O)c1ccc(C(F)(F)F)cc1)Nc1cc(C(F)(F)F)n[nH]1"
< 10 µM

How about this compound: "CC(C)(C)CNC(=NC(=O)c1ccc(F)c(F)c1)Nc1cc(-c2ccc(F)cc2)n[nH]1"
< 10 µM

// query: "O=C(N=C(Nc1cc(-c2ccc(F)cc2)n[nH]1)NC1CCCC1)c1ccc(Cl)cc1"
< 10 µM

Please do the same for "CCC(C)(C)N/C(=N/C(=O)c1ccc(Cl)c(F)c1)Nc1cc(C(F)(F)F)n[nH]1" as well.
< 10 µM

Field entry: "COC[C@H](C)N/C(=N/C(=O)c1ccc(Cl)cc1)Nc1cc(-c2ccc(F)cc2)n[nH]1"
< 10 µM
